# System: unphosphorylated-BTK kinase domain (UP-BTK), GST-tagged human BTK (389-659aa) (Homo sapiens (Human), UniProt Q06187)
# Sequence (Q06187 389-659): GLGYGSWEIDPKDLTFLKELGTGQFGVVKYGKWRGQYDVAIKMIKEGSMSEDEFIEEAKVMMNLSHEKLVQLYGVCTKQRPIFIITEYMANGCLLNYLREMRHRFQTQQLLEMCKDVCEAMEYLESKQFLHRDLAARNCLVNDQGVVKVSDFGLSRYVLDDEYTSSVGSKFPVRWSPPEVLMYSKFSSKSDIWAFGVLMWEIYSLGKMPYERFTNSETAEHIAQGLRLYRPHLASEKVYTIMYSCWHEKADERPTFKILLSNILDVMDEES
# Measurement description: BTK kinase Lanthascreen binding assay
# Conditions used: unphosphorylated-BTK kinase domain, 50 nM Tracer 236, 60 minutes; pIC50 = negative log of the IC50 in molar
Endpoint label: BTK_I_binding pIC50

CC(=O)N/C=C\C(=O)N1CCC[C@@H](NC(=O)c2sc3nccc4c3c2NC(=O)N4c2ccc(Oc3ccccc3)cc2C)C1 [Example 364] :: 6.8
O=C(N[C@@H]1CCCNC1)c1sc2nccc3c2c1NC(=O)N3c1ccc(-c2cccs2)cc1 [Example 407] :: 5.1
C=CC(=O)N1CCC[C@@H](NC(=O)c2sc3nccc4c3c2NC(=O)N4c2cccc(-c3ccccc3C)c2)C1 [Example 504] :: 8.0
Cc1cc(Oc2ccccc2)c(F)cc1N1C(=O)Nc2c(C(=O)N[C@@H]3CCCN(C)C3)sc3nccc1c23 [Example 303] :: 6.0
N#C/C(=C\C1CC1)C(=O)N1CCC[C@@H](NC(=O)c2sc3nccc4c3c2NC(=O)N4c2ccnc(-c3ccccc3)c2)C1 [Example 559] :: 8.2
Cc1cc(Oc2ccccc2)ccc1N1C(=O)Nc2c(C(=O)N[C@@H]3CCCN(C(=O)/C(C#N)=C/C4(C)COC4)C3)sc3nccc1c23 (single isomer, unassigned) [Example 387] :: 7.8
CNC/C=C(\F)C(=O)N1CCC[C@@H](NC(=O)c2sc3nccc4c3c2NC(=O)N4c2ccc(Oc3ccccc3)cc2C)C1 [Example 388] :: 7.1
Cc1cc(Oc2ccccc2)ccc1N1C(=O)Nc2c(C(=O)N[C@@H]3CCCN(C(=O)/C(Cl)=C/CN)C3)sc3nccc1c23 [Example 550] :: 7.3
C=CS(=O)(=O)N1CC[C@@H](NC(=O)c2sc3nccc4c3c2NC(=O)N4c2ccc(Oc3ccccc3)cc2C)C1 [Example 369] :: 7.8
C=CC(=O)N1CCC[C@@H](NC(=O)c2sc3nccc4c3c2NC(=O)N4c2cccc(OC3CCCCC3)c2)C1 [Example 560] :: 7.6
C=CC(=O)N1CCC[C@@H](NC(=O)c2sc3nccc4c3c2NC(=O)N4c2cccc(-c3ccc(F)cc3F)c2)C1 [Example 515] :: 7.7
C=CC(=O)N1CCC[C@@H](NCc2sc3nccc4c3c2NC(=O)N4c2ccc(Oc3ccccc3)cc2C)C1 [Example 390] :: 6.9

----------
# System: unphosphorylated-BTK kinase domain (UP-BTK), GST-tagged human BTK (389-659aa) (Homo sapiens (Human))
# Measurement description: BTK kinase Lanthascreen binding assay
# Conditions used: unphosphorylated-BTK kinase domain, 50 nM Tracer 236, 60 minutes; pIC50 = negative log of the IC50 in molar
Endpoint label: BTK_I_binding pIC50

Cc1cc(Oc2ccccc2)ccc1N1C(=O)Nc2c(C(=O)N[C@@H]3CCNC(C)C3)sc3nccc1c23 (single isomer, unassigned) [Example 434] :: 7.3
Cc1cc(C(C)C)ccc1N1C(=O)Nc2c(C(=O)N[C@@H]3CCCNC3)sc3nccc1c23 :: 5.8
Cc1cc(N2C(=O)Nc3c(C(=O)N[C@@H]4CCCNC4)sc4nccc2c34)ccc1Oc1ccccc1 :: 6.7

----------
# System: unphosphorylated-BTK kinase domain (UP-BTK), GST-tagged human BTK (389-659aa) (Homo sapiens (Human))
# Measurement description: BTK kinase Lanthascreen binding assay
# Conditions used: pIC50 = negative log of the IC50 in molar; 60 minutes incubation, 50 nM Tracer 236
Endpoint label: BTK_I_binding pIC50

COC(C)CC(=O)N1CCC[C@@H](NC(=O)c2sc3nccc4c3c2NC(=O)N4c2ccc(Oc3ccccc3)cc2C)C1 (stereo partly shown) [Example 155] :: 7.0
CC(C)=CC(=O)N1CCC[C@@H](NC(=O)c2sc3nccc4c3c2NC(=O)N4c2ccc(Oc3ccccc3)cc2C)C1 [Example 225] :: 6.7
C=CC(=O)N1CC[C@@H](NC(=O)c2sc3nccc4c3c2NC(=O)N4c2c(C)cc(Oc3ccccc3)cc2F)C1 [Example 45] :: 7.1
Cc1cc(Oc2ccccc2)ccc1N1C(=O)Nc2c(C(=O)N[C@H]3CNC[C@H](O)C3)sc3nccc1c23 [Example 179] :: 7.0
CC#CC(=O)N1CCC[C@@H](NC(=O)c2sc3nccc4c3c2NC(=O)N4c2ccc(Oc3ccccc3)cc2C)C1 (single isomer, unassigned) [Example 55] :: 7.4
CO[C@@H]1C[C@@H](NC(=O)c2sc3nccc4c3c2NC(=O)N4c2ccc(Oc3ccccc3)cc2)CN(C)C1 [Example 259] :: 6.5
C=CC(=O)N1CCC[C@@H](NC(=O)c2sc3nccc4c3c2NC(=O)N4c2ccc(Oc3ccccc3)cc2C(F)(F)F)C1 [Example 278] :: 6.2

----------
# System: unphosphorylated-BTK kinase domain (UP-BTK), GST-tagged human BTK (389-659aa) (Homo sapiens (Human), UniProt Q06187)
# Measurement description: BTK kinase Lanthascreen binding assay
# Conditions used: pIC50 = negative log of the IC50 in molar; 60 minutes incubation, 50 nM Tracer 236
Endpoint label: BTK_I_binding pIC50

C=CC(=O)N1CC[C@@H](NC(=O)c2sc3nccc4c3c2NC(=O)N4c2ccc(Oc3ccccc3)cc2Cl)C1 :: 7.7
C=CC(=O)N1CCC[C@@H](NC(=O)c2sc3nccc4c3c2NC(=O)N4c2ccc(OC3CCOCC3)cc2C)C1 :: 6.6
C=CC(=O)N1CCC[C@@H](NC(=O)c2sc3nccc4c3c2NC(=O)N4c2ccccc2C)C1 :: 6.7
Cc1cc(Oc2ccccc2)ccc1N1C(=O)Nc2c(C(=O)NC3CCNCC3C)sc3nccc1c23 (centres unmarked) :: 6.7
CC#CC(=O)N1CCC[C@@H](NC(=O)c2sc3nccc4c3c2NC(=O)N4c2ccc(Oc3ccccc3)cc2C)C1 [Example 42] :: 7.0
C=CC(=O)N1CC[C@@H](NC(=O)c2sc3nccc4c3c2NC(=O)N4c2ccc(OC3CCCCC3)cc2C)C1 :: 7.4
C=CC(=O)N1CCC[C@@H](NC(=O)c2sc3nccc4c3c2NC(=O)N4c2ccc(C)cc2)C1 :: 6.3
Cc1cc(Oc2ccccc2)ccc1N1C(=O)Nc2c(C(=O)N[C@H]3CNC[C@H]3F)sc3nccc1c23 :: 7.2
Cc1cc(Oc2ccccc2)ccc1N1C(=O)Nc2c(C(=O)NC3CCOCC3)sc3nccc1c23 :: 6.9
CCOc1ccccc1Oc1ccc(N2C(=O)Nc3c(C(=O)N[C@@H]4CCCN(C)C4)sc4nccc2c34)c(C)c1 :: 6.6
Cc1cc(Oc2ccccc2)ccc1N1C(=O)Nc2c(C(=O)N[C@@H]3CCCN(C(=O)/C(C#N)=C/C(C)(C)NC4CC4)C3)sc3nccc1c23 :: 7.3
Cc1cc(Oc2ccccc2)ccc1N1C(=O)Nc2c(C(=O)NC3CCCN(C)CC3)sc3nccc1c23 (centres unmarked) :: 6.7
Cc1cc(Oc2ccccc2)ccc1N1C(=O)Nc2c(C(=O)NC3CC[C@@H](C)N(C)C3)sc3nccc1c23 (mixture of isomers) :: 6.8
Cc1cc(Oc2ccccc2)ccc1N1C(=O)Nc2c(C(=O)N[C@@H]3CCCN(C(=O)CCS(C)(=O)=O)C3)sc3nccc1c23 :: 7.4
N#C/C(=C\C1CC1)C(=O)N1CCC[C@@H](NC(=O)c2sc3nccc4c3c2NC(=O)N4c2c(F)cc(Oc3ccccc3)cc2F)C1 :: 7.6
Cc1cc(Oc2ccccc2)ccc1N1C(=O)Nc2c(C(=O)NC3CCN(C)CC3C)sc3nccc1c23 (centres unmarked) :: 6.6
Cc1cc(Oc2ccccc2)ccc1N1C(=O)Nc2c(C(=O)N[C@@H]3CCCN(C(=O)[C@@H]4CCOC4)C3)sc3nccc1c23 :: 7.0
Cc1cc(Oc2ccccc2)ccc1N1C(=O)Nc2c(C(=O)NC3(CO)CCOCC3)sc3nccc1c23 :: 6.8
C=CC(=O)N1CCC[C@@H](NC(=O)c2sc3nccc4c3c2NC(=O)N4c2ccc(C)cc2C)C1 :: 6.7
CCc1ccccc1Oc1ccc(N2C(=O)Nc3c(C(=O)N[C@@H]4CCCN(C(=O)/C(C#N)=C/C5CC5)C4)sc4nccc2c34)c(C)c1 :: 6.8
Cc1c(N2C(=O)Nc3c(C(=O)N[C@@H]4CCCN(C(=O)CCO)C4)sc4nccc2c34)ccc(Oc2ccccc2)c1F :: 7.2
CNCCC(=O)N1CCC[C@@H](NC(=O)c2sc3nccc4c3c2NC(=O)N4c2ccc(Oc3ccccc3)cc2C)C1 :: 7.3
COCCC(=O)N1CC[C@@H](NC(=O)c2sc3nccc4c3c2NC(=O)N4c2ccc(Oc3ccccc3)cc2C)C1 :: 7.4
CO[C@H]1CNC[C@H](NC(=O)c2sc3nccc4c3c2NC(=O)N4c2ccc(Oc3ccccc3)cc2C)C1 :: 6.8
COCCC(=O)N1CCC[C@@H](NC(=O)c2sc3nccc4c3c2NC(=O)N4c2ccc(Oc3ccccc3)c(F)c2C)C1 :: 7.1
Cc1cc(Oc2ccccc2)ccc1N1C(=O)Nc2c(C(=O)N[C@H]3CN(C)C[C@@H]3F)sc3nccc1c23 :: 6.8
